Here, each record is paired with measured melting point data.
API: value field is a number in °C; no unit string.

Sample answers from the record:
Compound: CN1C(=O)COC(c2cccc(Cl)c2)c2cc(C(O)(c3ccc(Cl)cc3)c3cncn3C)ccc21 (stereo not shown)
melting point [°C]: 160

Compound: CN1C(=O)CN=C(c2cccc(Cl)c2)c2cc(C(O)(c3ccc(Cl)cc3)c3cncn3C)ccc21 (stereo not shown)
melting point [°C]: 226

Note: attention shifts to another entry.
(Q) Supply measured melting point of CN1C(=O)CNC(c2cccc(Cl)c2)c2cc(C(O)(c3ccc(Cl)cc3)c3cncn3C)ccc21 (stereo not shown) in your reply.
(A) 208

###

Give rule met when the value for melting point is at least 200 °C. Give rule not met when it is less.

Worked cases, answers included:
Compound: CN1C(=O)CSC(c2cccc(Cl)c2)c2cc(C(N)(c3ccc(Cl)cc3)c3cncn3C)ccc21 (centres unmarked)
Category: rule met

Compound: Cn1cncc1C(c1ccc(Cl)cc1)c1ccc2c(c1)C(c1cccc(Cl)c1)SCC(=O)N2 (centres unmarked)
Category: rule not met

Compound: Cn1cncc1C(O)(c1ccc(Cl)cc1)c1ccc2c(c1)C(c1cccc(Cl)c1)=NCc1nnnn1-2 (centres unmarked)
Category: rule met

Compound: CN1C(=O)CN=C(c2cccc(Cl)c2)c2cc(C(N)(c3ccc(Cl)cc3)c3cncn3C)ccc21 (centres unmarked)
Category: rule met

Compound: Cn1cncc1C(O)(c1ccc(Cl)cc1)c1ccc2c(c1)C(c1cccc(Cl)c1)SCC(=O)N2 (centres unmarked)
Category: rule met

(Q) Record Cn1cncc1C(N)(c1ccc(Cl)cc1)c1ccc2c(c1)C(c1cccc(Cl)c1)=NCc1nnnn1-2 (centres unmarked) ; criterion: melting point no lower than 200 °C. Met?
(A) rule met

(Q) Please indicate if the recorded melting point for Cn1cncc1C(c1ccc(Cl)cc1)c1ccc2c(c1)C(c1cccc(Cl)c1)SCc1nnnn1-2 (centres unmarked) meets or exceeds 200 °C.
(A) rule not met

(Q) Determine whether measured melting point meets or exceeds 200 °C for Cn1cncc1C(O)(c1ccc(Cl)cc1)c1ccc2c(c1)C(c1cccc(Cl)c1)SCC(=O)N2CC1CC1 (centres unmarked)
(A) rule met

(Q) Check this compound for melting point at or above 200 °C: O=C1CN=C(c2ccccc2)c2cc(C(c3ccc(Cl)cc3)n3ccnc3)ccc2N1 (racemic)
(A) rule not met

(Q) Hi, just wondering whether Cn1cncc1C(O)(c1ccc(Cl)cc1)c1ccc2c(c1)C(c1cccc(Cl)c1)SCc1nnnn1-2 (centres unmarked) shows melting point of 200 °C or higher.
(A) rule met

(Q) Could you please find out whether CN1C(=O)CSC(c2cccc(Cl)c2)c2cc(C(O)(c3ccc(Cl)cc3)c3cncn3C)ccc21 (centres unmarked) has melting point that meets 200 °C or exceeds it?
(A) rule not met

(Q) Can Cn1cncc1C(O)(c1ccc(Cl)cc1)c1ccc2c(c1)C(c1cccc(Cl)c1)OCC(=O)N2 (centres unmarked) [Example B1] be said to have melting point at or above 200 °C?
(A) rule met

Recorded values, source patent US7153958B2.
